TARGET_SYSTEM: Adenosine receptor A1 (Bos taurus)
Sequence (P28190 whole entry): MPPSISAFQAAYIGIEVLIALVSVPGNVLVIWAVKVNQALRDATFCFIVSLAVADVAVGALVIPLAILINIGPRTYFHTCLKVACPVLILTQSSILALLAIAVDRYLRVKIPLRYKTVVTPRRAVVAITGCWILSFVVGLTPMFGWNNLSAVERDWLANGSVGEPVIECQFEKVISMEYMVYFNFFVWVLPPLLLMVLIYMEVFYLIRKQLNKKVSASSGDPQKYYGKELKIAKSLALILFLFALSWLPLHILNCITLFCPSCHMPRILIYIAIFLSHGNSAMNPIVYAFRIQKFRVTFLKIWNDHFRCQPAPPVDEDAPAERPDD
METHOD_DESCRIPTION: Displacement of [3H]CHA from A1 Adenosine receptor of Bovine brain cortical membranes
MEASURED_QUANTITY: pKi
Friendly reminder that pKi comes from taking -log10 of the concentration in mol/L.

Task item: Data request, read-out pKi, for `Cc1ccc2c(Cl)cc(-c3ccccc3)nc2n1`
Reply: 6.00

====

TARGET_SYSTEM: Adenosine receptor A3 (Rattus norvegicus)
Sequence (P28647 whole entry): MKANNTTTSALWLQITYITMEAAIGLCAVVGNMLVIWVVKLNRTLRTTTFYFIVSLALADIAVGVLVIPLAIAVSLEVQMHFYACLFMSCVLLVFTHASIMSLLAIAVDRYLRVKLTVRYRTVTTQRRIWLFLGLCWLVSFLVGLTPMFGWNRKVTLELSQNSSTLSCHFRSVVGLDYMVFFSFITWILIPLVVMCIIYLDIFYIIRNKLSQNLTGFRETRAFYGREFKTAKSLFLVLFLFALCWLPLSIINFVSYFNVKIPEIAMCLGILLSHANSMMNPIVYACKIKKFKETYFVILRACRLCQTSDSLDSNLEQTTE
pKi: −log10 of the molar value.
MEASURED_QUANTITY: pKi

Below: 5 molecules and their reported pKi.
MOL: Cc1ccc2c(NC3CCCCC3)cc(-c3ccccc3)nc2n1
TARGET_SYSTEM: Adenosine receptor A3 (Rattus norvegicus)
EXPERIMENTAL_VALUE: < 5.00

MOL: O=c1ccc2c(O)cc(-c3ccccc3)nc2[nH]1
TARGET_SYSTEM: Adenosine receptor A3 (Rattus norvegicus)
EXPERIMENTAL_VALUE: < 5.00

MOL: CCCn1c(=O)c2[nH]c(-c3ccc(OCC(=O)NCCN)cc3)nc2n(CCC)c1=O
TARGET_SYSTEM: Adenosine receptor A3 (Rattus norvegicus)
EXPERIMENTAL_VALUE: 6.38

MOL: Cc1ccc2c(N)cc(-c3ccccc3)nc2n1
TARGET_SYSTEM: Adenosine receptor A3 (Rattus norvegicus)
EXPERIMENTAL_VALUE: < 5.00

MOL: Oc1cc(-c2ccccc2)nc2nc(Br)ccc12
TARGET_SYSTEM: Adenosine receptor A3 (Rattus norvegicus)
EXPERIMENTAL_VALUE: 5.68

Task item: Data request, read-out pKi, for `Cc1ccc2c(O)cc(-c3ccc(F)cc3)nc2n1`
Reply: 5.21

Task item: Next up: `Oc1cc(-c2ccccc2)nc2nc(F)ccc12`
Reply: < 5.00

Task item: Next up: `OC[C@H]1O[C@@H](n2cnc3c(NC4CCCCC4)ncnc32)[C@H](O)[C@@H]1O`
Reply: 7.60

Task item: Next up: `Oc1cc(-c2ccccc2)nc2ncccc12`
Reply: 5.52

Task item: Next up: `CCOc1ccc2c(O)cc(-c3ccccc3)nc2n1`
Reply: < 5.00

Task item: Next up: `Cc1ccc2c(N(C)C)cc(-c3ccccc3)nc2n1`
Reply: < 5.00

Task item: Next up: `Oc1cc(-c2ccccc2)nc2nc(Cl)ccc12`
Reply: 5.68

Task item: Next up: `Cc1ccc2c(Oc3ccccc3)cc(-c3ccccc3)nc2n1`
Reply: < 5.00

Each recorded value in this set is attributed to ChEMBL document CHEMBL1132946.
